For each entry below, report its pIC50 value.
measured_target: Epidermal growth factor receptor (Homo sapiens, UniProt P00533, L858R/T790M)
Sequence (P00533 25-1210 T790M/L858R limits assumed): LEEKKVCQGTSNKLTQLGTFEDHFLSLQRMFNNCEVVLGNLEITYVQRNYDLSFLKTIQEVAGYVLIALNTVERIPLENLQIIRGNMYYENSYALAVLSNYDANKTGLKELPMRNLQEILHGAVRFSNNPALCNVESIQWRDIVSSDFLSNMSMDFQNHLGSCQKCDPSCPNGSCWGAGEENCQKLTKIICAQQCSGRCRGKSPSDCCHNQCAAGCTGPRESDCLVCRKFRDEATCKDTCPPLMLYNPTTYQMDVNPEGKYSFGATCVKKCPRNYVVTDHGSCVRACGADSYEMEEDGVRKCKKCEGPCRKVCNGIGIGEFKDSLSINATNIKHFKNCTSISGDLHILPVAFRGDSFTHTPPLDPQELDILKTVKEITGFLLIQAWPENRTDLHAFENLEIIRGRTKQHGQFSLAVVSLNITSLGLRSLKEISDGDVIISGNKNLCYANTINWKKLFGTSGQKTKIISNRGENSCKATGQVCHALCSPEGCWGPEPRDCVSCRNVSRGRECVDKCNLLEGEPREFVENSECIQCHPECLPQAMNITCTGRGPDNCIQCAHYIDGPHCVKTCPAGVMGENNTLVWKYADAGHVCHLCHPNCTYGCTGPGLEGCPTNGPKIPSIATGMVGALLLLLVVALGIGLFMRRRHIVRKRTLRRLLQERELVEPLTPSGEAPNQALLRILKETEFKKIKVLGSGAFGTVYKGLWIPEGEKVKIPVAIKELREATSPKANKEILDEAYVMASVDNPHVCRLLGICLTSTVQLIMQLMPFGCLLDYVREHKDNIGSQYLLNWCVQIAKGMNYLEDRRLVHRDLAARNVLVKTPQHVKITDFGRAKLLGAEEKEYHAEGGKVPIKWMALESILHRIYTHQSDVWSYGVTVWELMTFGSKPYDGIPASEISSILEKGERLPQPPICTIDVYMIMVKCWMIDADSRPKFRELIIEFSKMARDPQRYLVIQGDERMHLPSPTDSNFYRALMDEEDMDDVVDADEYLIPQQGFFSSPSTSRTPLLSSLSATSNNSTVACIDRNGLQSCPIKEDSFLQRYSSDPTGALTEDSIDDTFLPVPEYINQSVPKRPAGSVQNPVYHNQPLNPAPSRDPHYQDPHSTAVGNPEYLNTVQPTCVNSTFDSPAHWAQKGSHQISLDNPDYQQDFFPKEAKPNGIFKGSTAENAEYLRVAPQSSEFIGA
test_description: Inhibition of EGFR L858R/T790M (unknown origin) by mobility shift assay
Lab note — pIC50 values are minus log10 of concentrations in M.

Prompt: Given the molecule `C=CC(=O)Nc1cc2c(Nc3ccc(OCc4cccc(F)c4)c(Cl)c3)ncnc2cc1OCc1cn(CCC(=O)NO)nn1` , what is its reported pIC50?
Completion: 7.80

Prompt: Look at this molecule and give its reported pIC50. `C=CC(=O)Nc1cc2c(Nc3cccc(Cl)c3F)ncnc2cc1OCc1cn(CCCCC(=O)NO)nn1`
Completion: 7.77

Prompt: Find the recorded pIC50 belonging to `C=CC(=O)Nc1cc2c(Nc3ccc(OCc4cccc(F)c4)c(Cl)c3)ncnc2cc1OCc1cn(CCCC(=O)NO)nn1` and report it.
Completion: 7.82

Prompt: Given the molecule `C=CC(=O)Nc1cc2c(Nc3ccc(F)c(Cl)c3)ncnc2cc1OCc1cn(CCCCC(=O)NO)nn1` , what is its reported pIC50?
Completion: 8.74
